# assayed-target: T1, recombinant soluble human type 1 IL-1 receptor (extracellular domain, glycosylated) (human, UniProt P14778 21-333, N-glycosylated (from SF9 insect cells); biotinylated in the ELISA of Examples 2 and 4c)
# T1 construct: also called hIL-1R; rshIL-1R
# T1 sequence: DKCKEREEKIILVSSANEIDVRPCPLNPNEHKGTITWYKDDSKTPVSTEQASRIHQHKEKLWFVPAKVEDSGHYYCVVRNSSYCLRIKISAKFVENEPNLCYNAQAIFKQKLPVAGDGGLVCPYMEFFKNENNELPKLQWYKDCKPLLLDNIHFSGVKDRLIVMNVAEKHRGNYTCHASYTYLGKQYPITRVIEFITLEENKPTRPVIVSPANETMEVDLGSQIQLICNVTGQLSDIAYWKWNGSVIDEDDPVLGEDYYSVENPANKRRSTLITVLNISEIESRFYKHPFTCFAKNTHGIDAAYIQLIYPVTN
# measurement-description: ELISA on biotinylated human IL-1R on streptavidin plates
value-type: ELISA (absorbance at 370 nm in relation to 2D8), 2nd experiment

Lookup: Fill blank: measured ELISA (absorbance at 370 nm in relation to 2D8), 2nd experiment of the binder HUM2/3 (antibody, V domains shown, also called combination of HUR HuVH v2 and HUR HuVK v3) VH: QVQLQESGPGLVKPSETLSLTCTVSELSLTSNSITWIRQPPGKGLEWIGMIWSNGDTDYNSAFTSRVTISRDTSKNQFSLKLSSVTAADTAVYYCARYNYYFDYWGQGTLVTVSS VL: EIVLTQSPATLSLSPGERATISCKASQNVDNRGVSYVHWYQQKPGQQPKLLIYKGSNLAFGVPARFSGSGSRTDFTLTISSLEPEDFATYYCQQSKGHPDTFGQGTKVEIK is ____.
Found: 2.1 relative to 2D8

Lookup: Param item: DEI2/9 (antibody, V domains shown, also called combination of HURDIVHv2 and HURDIVKv9) VH: QLQLQESGPGLVKPSQTLSLTCTVSGLSLTSNSITWVRQAPGQGLEWMGMIWSNGDTDYSTSLKSRLTISKDTSKSQVVLTMTNMDPVDTATYYCARYNYYFDYWGQGTLVTVSS VL: DIVLTQSPATLSLSPGERATLSCKASQNVDNRGVSYVHWYQQKPGQAPKLLIYKGSNLAFGVPSRFSGSGSGTDFTLTISSLQPEDFATYYCQQSKGHPDTFGAGTKLELK
Found: 1.8 relative to 2D8

From here, focus on the item given below.
Lookup: // lookup ELISA (absorbance at 370 nm in relation to 2D8), 2nd experiment for DEI5/8 (antibody, human IgG4, kappa, V domains shown, also called combination of HURDIVHv5 and HURDIVKv8) VH: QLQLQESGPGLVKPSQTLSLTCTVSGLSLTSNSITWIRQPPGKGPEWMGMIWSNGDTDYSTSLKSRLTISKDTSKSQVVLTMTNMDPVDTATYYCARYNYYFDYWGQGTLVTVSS VL: DIVLTQSPATLSLSPGERATLSCKASQNVDNRGVSYVHWYQQKPGQAPKLLIYKGSNLAFGVPSRFSGSGSGTDFTLTISSLQPEDFATYFCQQSKGHPDTFGAGTKLELKR
Found: 1.9 relative to 2D8
